test system: EKVX; test: NCI tumour cell line growth inhibition, 48 h
The source made the active and inactive calls. Cut-off read from the data, not from the text of the source: active = GI50 up to about 1.1 µM and inactive = higher.
Outcome field: choose from 1.0 = active, 0.0 = inactive

So what was the verdict on COc1ccc(/C=C\c2cc(OC)c(OC)c(OC)c2)cc1OCC(=O)O in this test?
0.0

So what was the verdict on O=C1CCCC1C(=O)Nc1ccc2ccccc2c1 (centres undefined) in this test?
0.0

So what was the verdict on C[C@H]1COC2(c3ccccc3)CCC(=O)N12 (some centres undefined) in this test?
0.0

So what was the verdict on CCC12CCCN(Cc3ccccc3)C1c1c(n(C)c3ccccc13)C(C(=O)OC)C2 (centres undefined) in this test?
0.0

So what was the verdict on CN1CNc2nc(N)n(C)c(=O)c2C1 in this test?
0.0

So what was the verdict on Nc1nc(Cl)cc(NCC2(CO)CC(CCc3ccccc3)C2)n1 (centres undefined) in this test?
0.0

So what was the verdict on C/C1=C\[C@@H](C)C[C@@H](C)OC(=O)[C@@H](C)NC(=O)[C@H](Cc2ccc(O)c(Br)c2)N(C)C(=O)CNC(=O)[C@H](C)C1 in this test?
1.0

So what was the verdict on COc1cccc([C@@]2(O)c3c(ccc(O)c3OC)[C@H]2OC)c1OC in this test?
0.0

So what was the verdict on N/C(S)=N/N=C/c1ccc(N)cn1 in this test?
0.0

So what was the verdict on COC1OC(C(=O)O)C2OC(C)(C)OC12 (centres undefined) in this test?
0.0

So what was the verdict on CN(C)c1ccc(/C=C2\N=C(NNc3ccccc3)NC2=O)cc1 in this test?
0.0

So what was the verdict on COc1ccccc1N1C(=O)/C(=C\c2cccc(Oc3ccccc3)c2)S(=O)(=O)C1c1ccccc1 (centres undefined) in this test?
0.0

So what was the verdict on CCOC(=O)CCC1(C(=O)OCC)CCCC1=O (centres undefined) in this test?
0.0

So what was the verdict on C=CCc1c(O)c2nsnc2c2nsnc12 in this test?
0.0

So what was the verdict on CC(=O)C1=C(C)N(c2ccc(C)cc2)C2(O)C=CC(O)=C3C(=O)c4ccccc4C(=O)C312 (centres undefined) in this test?
0.0

So what was the verdict on O=C1OC(c2ccccc2)=N/C1=C\c1cc(Cl)ccc1Cl in this test?
0.0

So what was the verdict on Cc1ccc(/N=C2\SC(=S)N(CCC[N+](C)(C)C)\C2=N/c2ccc(C)cc2)cc1 in this test?
0.0

So what was the verdict on c1ccc(-c2nnc3nn4c(-c5ccccc5)cnnc4c3c2-c2ccccc2)cc1 in this test?
0.0

So what was the verdict on CN(C)CCSCCO in this test?
0.0

So what was the verdict on COc1cc(CC2c3cc(OC)c(OC)cc3CCN2C)c(Oc2cc3c(cc2OC)-c2c(O)c(OC)cc4c2C(C3)N(C)CC4)cc1OC (centres undefined) in this test?
0.0

So what was the verdict on CCCc1nn(C)c(CCC(=O)N(Cc2ccccc2)Cc2ccccc2)c1CC in this test?
0.0

So what was the verdict on COc1ccc(-c2cc(=O)c3c(O)cc(O)cc3o2)c(OC)c1OC in this test?
0.0

So what was the verdict on COc1cc2c(c(OC)c1OC)-c1ccc(SC)c(=O)cc1C(CC(=O)Oc1cccc(F)c1)C2 (centres undefined) in this test?
0.0

So what was the verdict on O=C(O)c1c2c(cc3c1CC1(Cc4ccccc4C1=O)C3)CCC2 (centres undefined) in this test?
0.0
